- Test system: CEM cells HIV-1 protection, formazan growth assay
- Assay Details: NCI AIDS Antiviral Assay
pEC50: −log10 of the molar value.
// pEC50 lookup, one value per entry

Compound	pEC50
CCCCCCCCCCCCCCCCCCC1=C(O)C(=O)C=C(OC)C1=O	< 3.70
NC(=S)NNC(=O)CCC(=O)Nc1ccc(Cl)cc1Cl	< 3.97
O=C(NC1=NC2C=CC([N+](=O)[O-])=CC2S1)C(=O)Nn1c(=S)[nH]c2ccccc2c1=O (centres undefined)	< 4.09
O=C(/C=C\c1cccc2ccccc12)c1ccc(Br)cc1	< 5.51
C/C(=N\NC(=O)c1ccncc1)c1cccc(/C(C)=N/NC(=O)c2ccncc2)n1.O=S(=O)([O-])[O-].[Fe+2]	< 3.70
Cn1c2c(c(=O)c3cc(O)ccc31)CC(O)C(C)(C)O2 (centres undefined)	< 3.04
O=C1CNCCCN2CCN(CCCNCC(=O)Nc3ccc(cc3)S(=O)(=O)c3ccc(cc3)NC(=O)CNCCCN3CCN(CCCNCC(=O)Nc4ccc(cc4)S(=O)(=O)c4ccc(cc4)N1)CC3)CC2	< 4.30
Cc1ccc2nc(NC(=O)C(=O)C(C#N)c3nc4ccccc4s3)sc2c1 (centres undefined)	< 4.18
Nc1nnc(-c2ccco2)c(-c2ccco2)n1	< 3.70

* * *

- System: CEM cells HIV-1 protection, formazan growth assay
- Assay Details: NCI AIDS Antiviral Assay
pEC50: −log10 of the molar value.
// pEC50 lookup, one value per entry
Measured Quantity: pEC50

                                   compound  measured_quantity  result
0      CN(C)c1ccc(/C=C2\Cc3ccccc3C2=O)cc1Br              pEC50  < 4.96
1  CN(C)c1ccc2nc3c(cc(Nc4cccc5cccc(Nc6cc7ccccc7c7nc8ccc(N(C)C)cc8[o+]c67)c45)c4ccccc43)[o+]c2c1              pEC50  < 4.00
2  COc1cc(C(=O)OC2CC(C)=CC[C@@]3(C)CC[C@](O)(C(C)C)C23)ccc1O (some centres undefined)              pEC50  < 3.70
3  OCCN1CCN(CCCN2c3ccccc3Sc3ccc(Cl)cc32)CC1              pEC50  < 3.70
4  c1ccc(C2SCc3nc4ccccc4n32)cc1 (centres undefined)              pEC50  < 3.85
5  O=C(Nc1cc(Cl)c(Cl)cc1Cl)C(=O)C1C=CCS1(=O)=O (centres undefined)              pEC50  < 4.29
6  Cc1cn(C2CC(O[Si](C)(C)C(C)(C)C)C(/C=[N+](\C)[O-])O2)c(=O)[nH]c1=O (centres undefined)              pEC50  < 3.70
7  O=C(/C=C(\S/C=C(/c1ccccc1)N1CCn2c(C(=O)c3ccccc3)c(C(=O)c3ccccc3)c(C(=O)c3ccccc3)c21)C(=O)c1ccccc1)c1ccccc1              pEC50  < 3.70
8             Nc1ccc([As](=O)(O)O)cc1C(=O)O              pEC50  < 3.70

* * *

// pEC50 lookup, one value per entry
- Tested on: CEM cells HIV-1 protection, formazan growth assay
- Assay Details: NCI AIDS Antiviral Assay
pEC50: −log10 of the molar value.
Measured Quantity: pEC50

Compound	Result
COc1cc2c3c(c1)/C(=N\N)CCN3CCC2	< 3.70
CC(=O)OCCCC(NC(=O)OC(C)(C)C)C(=O)NC(CCCOC(C)=O)C(=O)NC(Cc1ccc([N+](=O)[O-])cc1)C(=O)NCC(=O)OCc1ccccc1 (stereo not given)	< 3.70
C/C=C/C=Nc1c(C#N)c2n(c1C(=O)Nc1ccccc1)CCCC2	< 4.30
O=C1c2c(O)cc(O)cc2O[C@H](c2ccc(O)cc2)[C@H]1[C@@H]1C(=O)c2c(O)cc(O)cc2O[C@H]1c1ccc(O)cc1	< 3.70
Cc1ccc(Nc2nc3c(=O)n(C)c(=O)n(C)c3nc2Nc2ccc(C)cc2)cc1	< 3.70
CCN1C(=O)C(C)C=C(C)C=C1C (stereo not given)	< 3.14
O=c1onc(-c2ccccc2)c2ccccc12	< 3.79
CN(C)CCCNc1ccnc2cc([N+](=O)[O-])ccc12	< 3.70
C1CCCCC/C2=C(\CCCC1)CSCCCS2	< 3.70
FC(F)(Oc1ccc2oc3ccccc3c2c1)c1nc2ccccc2o1	< 3.70
O=S(=O)(O)c1cccc2c(N=Nc3ccc(N=Nc4ccc(Nc5ccccc5)c5c(S(=O)(=O)O)cccc45)c4ccccc34)cccc12	< 4.30
NC1=Nc2ccccc2Sc2nccn21	< 3.70
COC1/C=C/OC2(C)Oc3c(C)c(O)c4c(O)c(cc(OCC(=O)N5CCC(O)(Cc6ccccc6)CC5)c4c3C2=O)NC(=O)/C(C)=C/C=CC(C)C(O)C(C)C(O)C(C)C(OC(C)=O)C1C (stereo not given)	< 3.95
COC(=O)C1C(=O)CC[C@H]2CN3CCc4c([nH]c5ccccc45)C3CC12 (stereo not given in full)	< 4.27
O=C(Nc1cccc([N+](=O)[O-])c1)/C(=N\NC(=O)c1ccncc1)c1nc2ccc([N+](=O)[O-])cc2[nH]c1=O	< 3.87
C[C@H]1OCN2C(=O)c3ccccc3SC(=O)[C@H]12	< 3.70
NC(=S)N/N=C1\COC(C(F)(F)F)(C(F)(F)F)C1	< 3.70
Cc1nn2c(N)cc(=O)nc2nc1/C=C/c1ccc(N(C)C)cc1	< 3.70
C=CCOc1ccc(C2c3c([nH][nH]c3=O)CC(O)(OCC)C2C(=O)OCC)cc1OC (stereo not given)	< 3.70
Cc1cc(C)nc(NS(=O)(=O)c2ccc(NC(=O)c3cccc4c(Nc5ccc(S(=O)(=O)Nc6nc(C)cc(C)n6)cc5)c5ccc(Cl)cc5nc34)cc2)n1	< 4.07
